Assay System: T1, mouse PD-L1 on mPD-L1/CHO-K1 overexpressing cells (mouse, UniProt Q9EP73 19-290)
T1 construct: whole, on cells; also called mouse PD-L1-expressing cells
T1 sequence (Q9EP73 19-290): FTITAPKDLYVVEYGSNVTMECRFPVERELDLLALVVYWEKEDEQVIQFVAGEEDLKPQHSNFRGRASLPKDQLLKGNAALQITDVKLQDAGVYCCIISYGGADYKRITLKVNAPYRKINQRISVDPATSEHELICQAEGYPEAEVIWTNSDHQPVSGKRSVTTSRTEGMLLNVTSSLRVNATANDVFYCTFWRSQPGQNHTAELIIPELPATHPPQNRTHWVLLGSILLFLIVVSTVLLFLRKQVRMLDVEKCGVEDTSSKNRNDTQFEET
Method Description: flow cytometry on mPD-L1/CHO-K1 cells (sheet label mPD-1/CHO-K1)
Experimental Endpoint: % Gated in M1 (%)
Answer format: numeric, % implied, no suffix.

Reference set (2 entries):
Binder | % Gated in M1 [%]
ME4.A12 anti-PD-L1 antibody (IgG form) (antibody, V domains shown) VH: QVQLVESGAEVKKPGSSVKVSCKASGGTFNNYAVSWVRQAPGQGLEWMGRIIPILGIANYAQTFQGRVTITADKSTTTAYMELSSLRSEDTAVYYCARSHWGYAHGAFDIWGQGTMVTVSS VL: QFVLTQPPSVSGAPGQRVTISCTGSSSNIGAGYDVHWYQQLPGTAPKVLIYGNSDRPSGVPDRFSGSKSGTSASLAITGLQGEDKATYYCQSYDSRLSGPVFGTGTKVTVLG | 7.31
ME4 anti-PD-L1 antibody (IgG form) (antibody, V domains shown, Converted to IgG with the vectors pIgGHD-6A6Hvy and pIgGLD-6A6Lgt; Expressed in Expi293F cells) VH: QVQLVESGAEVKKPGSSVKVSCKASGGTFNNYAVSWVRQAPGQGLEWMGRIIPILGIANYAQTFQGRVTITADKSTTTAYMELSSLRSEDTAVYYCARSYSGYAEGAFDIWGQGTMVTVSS VL: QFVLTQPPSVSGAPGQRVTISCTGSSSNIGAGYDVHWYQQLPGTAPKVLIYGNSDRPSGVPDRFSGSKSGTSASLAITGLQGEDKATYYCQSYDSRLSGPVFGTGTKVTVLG | 28.8

Continue with the next binder.
Prompt line: I'd like to know its % Gated in M1. The binder in question is ME4.B12 anti-PD-L1 antibody (IgG form) (antibody, V domains shown) VH: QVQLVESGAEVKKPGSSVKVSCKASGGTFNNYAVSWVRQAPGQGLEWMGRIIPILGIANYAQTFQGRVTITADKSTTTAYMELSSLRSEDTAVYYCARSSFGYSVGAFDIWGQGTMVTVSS VL: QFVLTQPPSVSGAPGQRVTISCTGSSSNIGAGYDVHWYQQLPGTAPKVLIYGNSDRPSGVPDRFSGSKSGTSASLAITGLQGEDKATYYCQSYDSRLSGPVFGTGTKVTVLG
Response line: 27.2
